Record form. Attribute: 2*(1-BDC) (%). Fill in for each entry.
Target: SARS-CoV-2 NSP3 macrodomain (Mac1) (Severe acute respiratory syndrome coronavirus 2, UniProt P0DTD1)
Assay type: binding
Details: occupancy estimate from PanDDA
One number for each entry, in %.

| Compound | Endpoint result |
| --- | --- |
| CC(C)(CO)Nc1ncnc2[nH]ccc12 [AVI-5266] | 24 |

Required: 2*(1-BDC) (%), one value per compound below.
1. O[C@H]1CC[C@@H]2CCN(c3ncnc4[nH]ccc34)[C@@H]21 [AVI-3664]
2. OCC(Nc1ncnc2[nH]ccc12)C1CC1 (stereo not shown) [AVI-3651]
3. OCC(CC1CCOC1)Nc1ncnc2[nH]ccc12 (stereo not shown) [AVI-3665]
4. CN1CCN(c2ncnc3[nH]ccc23)C(CO)C1 (stereo not shown) [AVI-3721]
5. Cc1c[nH]c2ncnc(NCC3(O)CCC(O)CC3)c12 (stereo not shown) [AVI-4329]

**Result**
32
36
34
12
18

State recorded 2*(1-BDC) (%) for all listed compounds.
1. Cc1c[nH]c2ncnc(NCC3(O)CCSCC3)c12 [AVI-4195]
2. OC(c1ccccc1)C1CCCN1c1ncnc2[nH]ccc12 (stereo not shown) [AVI-3652]
3. C[C@@H]1CCN(c2ncnc3[nH]ccc23)[C@H](CO)C1 [AVI-4064]
4. OC1CCN(c2ncnc3[nH]ccc23)C1 (stereo not shown) [AVI-3661]
5. OCC(O)C1CCCN1c1ncnc2[nH]ccc12 (stereo not shown) [AVI-3701]
6. NC(=O)C1(O)CCN(c2ncnc3[nH]ccc23)C1 (stereo not shown) [AVI-611]

**Result**
1: 28; 2: 44; 3: 38; 4: 30; 5: 36; 6: 44

For every item below, please supply its 2*(1-BDC) (%).
1. OC1(CNc2ncnc3[nH]ccc23)CCSCC1 [AVI-4319]
2. O=C1CCc2cc(C(=O)N3CC(C(=O)O)CCC34CCCC4)c(F)cc2N1 (stereo not shown) [AVI-338]
3. OCC(CC1CCCO1)Nc1ncnc2[nH]ccc12 (stereo not shown) [AVI-3660]
4. O=C(Nc1ccsc1C(=O)O)c1ccc2c(c1)OCO2 [AVI-316]
5. O=C(O)C(F)(F)F.OCC12CC(CN1c1ncnc3[nH]ccc13)C2 [AVI-3681]

**Result**
1: 32; 2: 14; 3: 46; 4: 14; 5: 44

---

Provide the reported Hill slope of each item.
Molecular target: SARS-CoV-2 NSP3 macrodomain (Mac1) (Severe acute respiratory syndrome coronavirus 2, UniProt P0DTD1)
Experiment: biochemical
Format: binding
Settings: HTRF binding curve, SARS-CoV-2 Mac1
One number for each entry.

For orientation, consider the following solved cases.
| Compound | Hill slope |
| --- | --- |
| O=C(O)C(F)(F)F.OCC1(Nc2ncnc3[nH]ccc23)CCCC1 | 1.3 |
| O=C(O)C(F)(F)F.OC1([C@H]2CCCN2c2ncnc3[nH]ccc23)Cc2ccccc2C1 | 1.1 |
| C[C@@H]1CCN(c2ncnc3[nH]ccc23)[C@H](CO)C1 | 1.2 |
| CN(CC1(O)CCOCC1)c1ncnc2[nH]ccc12 | 1.2 |

**Query** Tell me its Hill slope given CC(c1ccccc1)C(CO)Nc1ncnc2[nH]ccc12 (centres unmarked) as the entry.
**Result** 1.2
